Known pIC50 of a selection of compounds
tested on: Plasmodium falciparum; experiment: Hit confirmation in dose-response curve in NF54 pLDH assay, at 72h; assay type: functional, organism-based; design: timepoint 72 hour; settings: NF54, Erythrocyte
pIC50: −log10 of the molar value.

| compound | pIC50 |
| --- | --- |
| Oc1ccc2ncccc2c1[C@@H](Nc1ccccn1)c1cccc(Br)c1 | 5.29 |
| COc1nc(-c2cccc(C(=O)N3C[C@@H]4CC[C@H](C3)C(=O)N4)c2)ncc1F | 6.09 |
| COc1c2c(cc3c1[C@@H](C#CCOc1ccccc1)[N+](C)(C)CC3)OCO2 | 5.48 |
| C[N+]12CCCCC1C(OC(=O)C1(c3ccccc3)CCCC1)CCC2 (stereo not given) | 5.55 |
| COc1ccc(-[n+]2c(-c3ccccc3)cn3c2CCC3)cc1 | 5.85 |

* * *

system: Plasmodium falciparum; experiment: Hit confirmation in dose-response curve in NF54 pLDH assay, at 72h; type: functional, organism-based; design: timepoint 72 hour; details: NF54, Erythrocyte
property_measured: log10 of IC50 (log10 of the value in nM)

| compound | log10 of IC50 |
| --- | --- |
| Cc1cnccc1NCCNCc1cccc(O)c1Cl | 3.17 |
| OC(CNC1CCCNc2ccccc21)c1ccc(Cl)s1 (stereo not given) | 3.59 |
| CC1(C)OCc2cc(CNc3ccc4oc(=O)[nH]c4c3)ccc2O1 | 2.88 |
| CC(C)(C)[C@H]1CCc2c(sc(NC(=O)C3(F)C(F)(F)C(F)(F)C(F)(F)C(F)(F)C3(F)F)c2C#N)C1 | 3.47 |
| Nc1ncc(C(=O)N2CCC3(CCCCCC3)C2)s1 | 2.94 |
| CC(C(=O)Nc1nccs1)N1CCCC(c2ccn[nH]2)C1 (stereo not given) | 3.86 |
| CC(CC1OCC(C[N+]2(Cc3ccccc3)CCCCC2)O1)CC(C)(C)C (stereo not given) | 3.31 |
| CCn1cc(-c2nc(-c3ccccc3C)no2)c(=O)c2cc(F)c(N3CCOCC3)cc21 | 3.85 |
| O=C(Nc1[nH]c(=O)ncc1F)c1cccc2ccccc12 | 1.02 |
| C[C@H]1[C@@H]2[C@@H](O)C([C@H](C)C(=O)NC3CCCCC3)CC[C@@]2(C)CC[C@@H]1NC(=O)CC(C)(C)C (stereo not given in full) | 3.54 |

* * *

test: Hit confirmation in dose-response curve in HepG2 cytotoxicity assay, at 72h; format: toxicity, cell-based; set-up: timepoint 72 hour; details: human, HepG2 cells
property_measured: IC50 at 72 h

| smiles_code | data_value |
| --- | --- |
| CCC1=C(c2ccc(C)cc2)S(=O)(=O)N=C1N1CCC(C(=O)NCCN2CCCC[C@@H]2C)CC1 | > 10 µM |
| Cn1c(Cc2n[n+]3c(-c4ccccc4)cc(-c4ccccc4)nc3n2C)n[n+]2c(-c3ccccc3)cc(-c3ccccc3)nc12 | 4.79 µM |
| COc1nc(N2[C@@H]3CC[C@H]2C[C@@H](OC)C3)ncc1F | > 10 µM |
| O=S(=O)(c1cccc(Cl)c1)N1CCc2nc(N3CCCCC3)nc(Oc3ccccc3)c2C1 | > 10 µM |
| Cc1ccc(O)c(CNCC2(c3ccccc3Cl)CCOCC2)n1 | > 10 µM |

* * *

Known IC50 at 72 h of a selection of molecules
assay: Hit confirmation in dose-response curve in HepG2 cytotoxicity assay, at 72h; type: toxicity, cell-based; design: timepoint 72 hour; settings: human, HepG2 cells
property_measured: IC50 at 72 h

| molecule | data_value |
| --- | --- |
| c1ccc(C2=NN(c3ccc(-c4cc(-c5ccccc5)[n+](-c5ccccc5)c(-c5ccccc5)c4)cc3)[C@H](c3ccccc3)C2)cc1 | 4.07 µM |
| Cc1[nH]c2ncnc(NC(=O)c3cccc(-n4ccnn4)c3)c2c1C | > 10 µM |
| COc1nc(-c2cccc(C(=O)NCC3CCOCC3)c2)ncc1F | > 10 µM |
| CC(C)N1C(=O)NC(=O)C2(Cc3ccccc3N3CCN(Cc4ccccc4)CC32)C1=O (stereo not given) | > 10 µM |
| CC[C@H]1CN2C=NC(N3CCN(C(=O)Nc4cc(F)cc(F)c4)CC3)=CC2=N1 | > 10 µM |
| Cc1cc[n+]2c(-c3ccccc3)cc(-c3ccccc3)nc2c1 | > 10 µM |
| NC(=O)c1ccccc1NC(=O)C1CCN(c2cc(C3CC3)ncn2)CC1 | > 10 µM |
| Cc1cc(N2C[C@H]3CC[C@@H](C2)[C@H]3N(C)C)nc(Nc2cccc(O)c2)n1 | > 10 µM |
| CC[N+](CC)(CC(=O)OC1CC2CCC1(C)C2(C)C)CC(=O)OC1CC2CCC1(C)C2(C)C (stereo not given) | > 10 µM |
| CC(C)(C)[C@H]1CCc2c(sc(NC(=O)C3(F)C(F)(F)C(F)(F)C(F)(F)C(F)(F)C3(F)F)c2C#N)C1 | 4.57 µM |
| O=C(Nc1ccccc1Cl)N1CCC(N2CCc3sccc3C2)CC1 | > 10 µM |
| COc1ccc(-c2cc(-c3ccccc3)nc(N3CCC(C)CC3)n2)cc1 | > 10 µM |
| CC(C)c1cc(=O)[nH]c(-n2nc(C3CC3)cc2NC(=O)c2ccc(F)cc2)n1 | 10 µM |
| Cc1cc(N(C)CCC2CC2)nc([C@H](C)N(C)CCC2CC2)n1 | > 10 µM |
| COc1nc(-c2cccc(C(=O)N3C[C@@H]4CC[C@H](C3)C(=O)N4)c2)ncc1F | > 10 µM |
| CC[n+]1c(/C=C/N(C)c2ccccc2)oc2ccccc21 | > 10 µM |
| COc1ccccc1Cn1cnc2c1c(=O)n(C1CCCCC1)c(=O)n2-c1ccccc1Cl | > 10 µM |
| Cc1c(-c2ccc(F)cc2)[nH]c2ccc(CNc3nccc(N(C)C)n3)cc12 | > 10 µM |
| Cc1oc(-c2ccc(C(=O)N3CCN(c4ccccc4)CC3)cc2)nc1CN1CCC(C)CC1 | > 10 µM |
| CC(C)[C@@H]1CC[C@H](C)C[C@H]1OC(=O)Cn1cc(-c2ccc(Cl)cc2)[n+]2c1CCC2 | > 10 µM |

* * *

test system: Plasmodium falciparum; assay: Hit confirmation in dose-response curve in NF54 nanoGlo assay, at 72h; format: functional, organism-based, Erythrocyte; design: timepoint 72 hour; details: Plasmodium falciparum, NF54, Erythrocyte, 72 h
IC50 strictly under 2000 nM means label 1; at 2000 nM or over means label 0.

| compound | group_label |
| --- | --- |
| Cc1c(F)cccc1NC(=O)N1CCN(C2=CC3=N[C@@H](C)CN3C=N2)CC1 | label 0 |
| COc1ccc(CCNc2oc(-c3cccnc3)nc2C#N)cc1OC | label 0 |
| COc1ccc(CN2CC[C@@H]3C(=O)NCCCCCCN(Cc4ccncc4)[C@@H]3C2)cc1Cn1ccnc1 | label 1 |
| O=S(=O)(Nc1ccc(O)c2cccnc12)N1CCCC1 | label 0 |
| Cc1cc(C(=O)NC2CC(C)n3ccnc32)nn1C(C)C (stereo not given) | label 0 |
| CC(C)(C)n1nc2nc(NCCN3CCCCC3)nc(-c3ccc(F)c(Cl)c3)c2c1N | label 1 |
| CN(CCNC(=O)CCc1cn(-c2ccccc2)nc1-c1ccc2c(c1)OCO2)C1CCCCC1 | label 1 |
| Oc1ccccc1CNc1cccc2cccnc12 | label 0 |
| Nc1c(-c2nc3ccccc3[nH]2)c2nc3ccccc3nc2n1Cc1ccccc1F | label 1 |
| COc1ccc(C(=O)C[n+]2nc(CNc3ccc(Br)cc3)n3c2CCCCC3)cc1 | label 1 |
| CN(C)CC(O)COc1ccc(S(=O)(=O)c2ccc(OCC(O)CN(C)C)c(Cl)c2)cc1Cl (stereo not given) | label 1 |
| COc1cc(C(=O)Nc2ccc3sc(NC(=O)c4cc(OC)c(OC)c(OC)c4)nc3n2)cc(OC)c1OC | label 1 |
| Cc1noc(NCc2ccc(Cl)cc2)n1 | label 0 |
| CCN(CC)CCn1c2ccccc2n2cc(-c3ccc(Br)cc3)nc12 | label 0 |
| O=C(c1cccc(C(=O)N2CCN(C(c3ccccc3)c3ccccc3)CC2)c1)N1CCN(C(c2ccccc2)c2ccccc2)CC1 | label 0 |
| Cc1cc(N2C[C@H]3CC[C@@H](C2)[C@H]3N(C)C)nc(Nc2cccc(O)c2)n1 | label 1 |
| CC12CN(S(=O)(=O)c3ccc4c(c3)OCCO4)C3(C(=O)OCc4ccccc4)CC1CCC23C (stereo not given) | label 0 |

* * *

tested on: Plasmodium falciparum; test: Hit confirmation in dose-response curve in NF54 pLDH assay, at 72h; type: functional, organism-based; parameters: timepoint 72 hour; details: NF54, Erythrocyte
pIC50: −log10 of the molar value.
Known pIC50 of a selection of compounds
property_measured: pIC50

| compound | property_measured | relational_operator | data_value |
| --- | --- | --- | --- |
| O=C(CN1CCC[C@H]1C1CCCC1)NCC1CCCCC1 | pIC50 | = | 5.52 |
| COc1ccc(CCNc2nc(-c3ccc(OC)cc3F)c3c(N)n(-c4ccc(Cl)cc4)nc3n2)cc1 | pIC50 | < | 5.00 |
| COc1ccc2c(c1)OC13CCN(C)CC1C2C(C(=O)c1ccccc1OC)C(=O)N3 (stereo not given) | pIC50 | < | 5.00 |
| CCc1cccc(NC(=O)Cn2ccc3ccc(-c4nnc(C)o4)cc32)c1 | pIC50 | = | 5.57 |
| CN1CCC(N2CCC(CN(Cc3ccncc3)Cc3c(F)cccc3Cl)CC2)CC1 | pIC50 | = | 5.93 |
